- Tested on: HepG2 (hepatocellular carcinoma) cell line
- stated.conditions: human
Overview of reported SI HepG2/W2 across a group of compounds:

| compound | SI HepG2/W2 |
| --- | --- |
| CC(=O)O[C@H]1C[C@H]2[C@@H]([C@H](OC(C)=O)C[C@@H]3C[C@H](NC(=O)OC(C)(C)C)CC[C@@]32C)[C@@H]2CC[C@H]([C@H](C)CCCN(CCCNc3ccnc4cc(Cl)ccc34)CCC[C@@H](C)[C@H]3CC[C@H]4[C@@H]5[C@H](OC(C)=O)C[C@@H]6C[C@H](NC(=O)OC(C)(C)C)CC[C@]6(C)[C@H]5C[C@H](OC(C)=O)[C@]34C)[C@@]12C [Compound 59] | 96/96/96 |
| CC(=O)O[C@H]1C[C@H]2[C@@H]([C@H](OC(C)=O)C[C@@H]3CC(=O)CC[C@@]32C)[C@@H]2CC[C@H]([C@H](C)CCCNCCCNc3ccnc4cc(Cl)ccc34)[C@@]12C [Compound 23] | 161/182/121 |
| CC(=O)O[C@H]1C[C@H]2[C@@H]([C@H](OC(C)=O)C[C@@H]3C[C@H](N)CC[C@@]32C)[C@@H]2CC[C@H]([C@H](C)CCCN(CCC[C@@H](C)[C@H]3CC[C@H]4[C@@H]5[C@H](OC(C)=O)C[C@@H]6C[C@H](N)CC[C@]6(C)[C@H]5C[C@H](OC(C)=O)[C@]34C)CCNc3ccnc4cc(Cl)ccc34)[C@@]12C [Compound 60] | 21/19/19 |
| CC(=O)O[C@H]1C[C@H]2[C@@H]([C@H](OC(C)=O)C[C@@H]3C[C@H](N(C)C)CC[C@@]32C)[C@@H]2CC[C@H]([C@H](C)CCCNCCCNc3ccnc4cc(Cl)ccc34)[C@@]12C [Compound 51] | 382/137/156 |
| CC(=O)O[C@H]1C[C@H]2[C@@H]([C@H](OC(C)=O)C[C@@H]3CC(=O)CC[C@@]32C)[C@@H]2CC[C@H]([C@H](C)CCCNCCCCCCNc3ccnc4cc(Cl)ccc34)[C@@]12C [Compound 25] | 30/27/25 |
| CC(=O)O[C@H]1C[C@H]2[C@@H]([C@H](OC(C)=O)C[C@@H]3C[C@H](O)CC[C@@]32C)[C@@H]2CC[C@H]([C@H](C)CCCNCCCCCCNc3ccnc4cc(Cl)ccc34)[C@@]12C [Compound 19] | 60/56/50 |
| CC(=O)O[C@H]1C[C@H]2[C@@H]([C@H](OC(C)=O)C[C@@H]3C[C@H](N)CC[C@@]32C)[C@@H]2CC[C@H]([C@H](C)CCCNCCCNc3ccnc4cc(Cl)ccc34)[C@@]12C [Compound 53] | 54/75/43 |
| CC(=O)O[C@H]1C[C@H]2[C@@H]([C@H](OC(C)=O)C[C@@H]3C[C@H](N)CC[C@@]32C)[C@@H]2CC[C@H]([C@H](C)CCCN(C)CCCNc3ccnc4cc(Cl)ccc34)[C@@]12C [Compound 55] | 45/44/50 |
